Biological target: recombinant human 15-PGDH (Homo sapiens)
Construct: purchased R&D Systems
Sequence (P15428 1-266): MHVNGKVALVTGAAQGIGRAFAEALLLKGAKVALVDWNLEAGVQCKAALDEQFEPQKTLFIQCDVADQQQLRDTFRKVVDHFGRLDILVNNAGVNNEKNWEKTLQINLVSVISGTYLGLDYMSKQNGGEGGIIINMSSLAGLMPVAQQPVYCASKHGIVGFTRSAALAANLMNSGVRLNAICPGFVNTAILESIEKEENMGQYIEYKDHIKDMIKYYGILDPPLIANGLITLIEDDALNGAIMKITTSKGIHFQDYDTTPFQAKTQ
Assay: 15-PGDH enzyme inhibition test
Assay type: biochemical
Details: 4 nM recombinant human 15-PGDH, 30 μM PGE2, 1 mM NAD+, 60 minutes after starting the reaction; read-out: IC50 Value
So I've got a bunch of compounds here, and I need their IC50 values.

Please give the measured IC50 for this compound: COCCN1Cc2cc(N3CCCc4cc(C(=O)N5CCC(F)(F)CC5)cnc43)ccc2C1=O < 10 nM

Please give the measured IC50 for this compound: O=C(c1cnc2c(c1)OCCN2c1ccccc1F)N1CCCCC1 > 100 nM

Please give the measured IC50 for this compound: Cn1nc2cc(N3CCOc4cc(C(=O)N5C[C@H](O)C[C@H](O)C5)cnc43)ccn2c1=O 10 to 100 nM

Please give the measured IC50 for this compound: CCn1nc2cc(N3CCCc4cc(C(=O)N5CCC[C@@H](C(F)(F)F)C5)cnc43)ccn2c1=O 10 to 100 nM

Please give the measured IC50 for this compound: CNC(=O)c1cc2ccc(N3CCOc4cc(C(=O)N5CCCCC5)cnc43)cc2n1C 10 to 100 nM

Please give the measured IC50 for this compound: CN1C(=O)c2ccc(N3CCOc4cc(C(=O)N5CCCCC5)cnc43)cc2S1(=O)=O < 10 nM

Please give the measured IC50 for this compound: CC1c2cc(N3CCOc4cc(C(=O)N5CCCCC5)cnc43)ccc2C(=O)N1C (single isomer, unassigned) [16-1 Isomer A] < 10 nM

Please give the measured IC50 for this compound: CC(=O)N1CCN(C(=O)c2cnc3c(c2)CCCN3c2ccn3c(=O)n(C)nc3c2)CC1 > 100 nM

Please give the measured IC50 for this compound: Cn1nc2cc(N3CCOc4cc(C(=O)NCCCO)cnc43)ccn2c1=O 10 to 100 nM

Please give the measured IC50 for this compound: CCn1nc2cc(N3CCCc4cc(C(=O)N5CCC[C@@H](F)C5)cnc43)ccn2c1=O < 10 nM

Please give the measured IC50 for this compound: C[C@@H]1CCCN(C(=O)c2cnc3c(c2)CCCN3c2ccn3c(=O)n(C)nc3c2)C1 < 10 nM

Please give the measured IC50 for this compound: CCC(O)CNC(=O)c1cnc2c(c1)OCCN2c1ccn2c(=O)n(C)nc2c1 (centres unmarked) > 100 nM

Please give the measured IC50 for this compound: N#Cc1ccc(N2CCOc3cc(C(=O)N4CCCCC4)cnc32)cc1 < 10 nM

Please give the measured IC50 for this compound: CCn1nc2cc(N3CCCc4cc(C(=O)N5CCC[C@@H](C(F)F)C5)cnc43)ccn2c1=O < 10 nM

Please give the measured IC50 for this compound: COCCN1Cc2cc(N3CCCc4cc(C(=O)N5CCC(F)(F)CC5)cnc43)ncc2C1=O 10 to 100 nM

Please give the measured IC50 for this compound: Cn1nc2cc(N3CCOc4cc(C(=O)N5C[C@H]6CCC[C@H]6C5)cnc43)ccn2c1=O < 10 nM

Please give the measured IC50 for this compound: Cn1nc2cc(N3CCCc4cc(C(=O)N5CCCCC5)ccc43)ccn2c1=O < 10 nM

Please give the measured IC50 for this compound: CN1Cc2cc(N3CCOc4cc(C(=O)N5CCCC5)cnc43)ccc2C1=O < 10 nM

Please give the measured IC50 for this compound: CCOCn1nc2cc(N3CCCc4cc(C(=O)N5CCCCC5)cnc43)ccn2c1=O < 10 nM

Please give the measured IC50 for this compound: CCOCCN1Cc2cc(N3CCCc4cc(C(=O)N5CCC(F)(F)CC5)cnc43)ccc2C1=O < 10 nM

Please give the measured IC50 for this compound: CC1CCN(C(=O)c2cnc3c(c2)CCCN3c2ccn3c(=O)n(C)nc3c2)CC1 < 10 nM

Please give the measured IC50 for this compound: COCn1nc2cc(N3CCCc4cc(C(=O)N5CCC[C@@H](C(F)F)C5)cnc43)ccn2c1=O < 10 nM

Please give the measured IC50 for this compound: CNC(=O)c1ncc(N2CCCc3cc(C(=O)N4CCCCC4)cnc32)cc1F < 10 nM

Please give the measured IC50 for this compound: C[C@H]1CCCCN1C(=O)c1cnc2c(c1)OCCN2c1ccc2c(c1)CN(C)C2=O < 10 nM

Please give the measured IC50 for this compound: COCn1nc2cc(N3CCCc4cc(C(=O)N5CCC[C@H](C(F)F)C5)cnc43)ccn2c1=O < 10 nM

Please give the measured IC50 for this compound: Cn1nc2cc(N3CCOc4cc(C(=O)N5CCC[C@@H](C(F)(F)F)C5)cnc43)ccn2c1=O < 10 nM

Please give the measured IC50 for this compound: COC(=O)c1cn(C)c2cc(N3CCOc4cc(C(=O)N5CCCCC5)cnc43)ccc12 10 to 100 nM

Please give the measured IC50 for this compound: CO[C@H]1CCCN(C(=O)c2cnc3c(c2)OCCN3c2ccn3c(=O)n(C)nc3c2)C1 < 10 nM

Please give the measured IC50 for this compound: O=C(O)c1ccc(N2CCOc3cc(C(=O)N4CCCCC4)cnc32)cc1F < 10 nM

Please give the measured IC50 for this compound: CN1CCN(c2ccccc2)c2ncc(C(=O)N3CCCCC3)cc21 > 100 nM

Please give the measured IC50 for this compound: CC1CN(C(=O)c2cnc3c(c2)CCCN3c2ccn3c(=O)n(C)nc3c2)CCC1(F)F (centres unmarked) < 10 nM

Please give the measured IC50 for this compound: CC(C)(O)Cn1nc2cc(N3CCOc4cc(C(=O)N5CCCCC5)cnc43)ccn2c1=O < 10 nM
